Target: Histone-lysine N-methyltransferase EZH2 (Homo sapiens, UniProt O75530+Q09028+Q15022+Q15910, Y641N)
Sequence (Q15910 whole entry Y641N, one chain of several): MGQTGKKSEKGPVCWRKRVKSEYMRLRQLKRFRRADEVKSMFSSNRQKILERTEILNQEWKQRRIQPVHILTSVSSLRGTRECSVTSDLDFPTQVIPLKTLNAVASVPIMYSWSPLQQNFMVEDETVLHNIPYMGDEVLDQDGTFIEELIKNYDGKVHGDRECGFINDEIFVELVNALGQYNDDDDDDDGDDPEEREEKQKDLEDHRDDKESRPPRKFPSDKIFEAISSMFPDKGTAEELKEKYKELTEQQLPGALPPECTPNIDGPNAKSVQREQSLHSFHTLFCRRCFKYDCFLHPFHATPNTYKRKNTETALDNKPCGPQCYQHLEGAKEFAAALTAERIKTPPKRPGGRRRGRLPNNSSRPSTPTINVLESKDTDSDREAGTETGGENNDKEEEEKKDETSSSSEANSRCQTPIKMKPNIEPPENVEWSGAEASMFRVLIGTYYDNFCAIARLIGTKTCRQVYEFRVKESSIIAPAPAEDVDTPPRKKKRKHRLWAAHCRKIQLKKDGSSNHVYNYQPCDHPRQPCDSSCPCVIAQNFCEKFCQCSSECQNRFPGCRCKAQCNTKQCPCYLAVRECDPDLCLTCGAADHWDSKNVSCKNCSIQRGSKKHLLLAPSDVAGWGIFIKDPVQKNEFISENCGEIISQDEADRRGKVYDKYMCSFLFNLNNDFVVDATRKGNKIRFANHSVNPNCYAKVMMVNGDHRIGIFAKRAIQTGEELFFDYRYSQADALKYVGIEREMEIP
Assay: Inhibition of EZH2 Y641N mutant (unknown origin) expressed in baculovirus infected SF9 cells co-expressing SUZ12/EED/RbAp48 complex using HeLa cells derived oligonucleosomes as substrate after 60 mins in presence of [3H] SAM by scintillation counting
experimentalReadout: IC50 (nM)

smilesCode: Cc1cc(C)c(CN2CCc3ccc(-c4c(C)noc4C)c(Cl)c3C2=O)c(=O)[nH]1
recordedNumber: 8.8
//
smilesCode: Cc1cc(C)c(CN2CCc3c(Cl)cc(O[C@@H]4CCOC4)c(Cl)c3C2=O)c(=O)[nH]1
recordedNumber: 18
//
smilesCode: Cc1cc(C)c(CN2CCc3c(Cl)cc(-c4c(C)n[nH]c4C)c(Cl)c3C2=O)c(=O)[nH]1
recordedNumber: 82
//
smilesCode: Cc1cc(C)c(CN2CCc3c(C)cc(O[C@@H]4CCOC4)c(Cl)c3C2=O)c(=O)[nH]1
recordedNumber: 61
//
smilesCode: Cc1cc(C)c(CN2CCc3c(Cl)cc(-c4c(C)nn(C)c4C)c(Cl)c3C2=O)c(=O)[nH]1
recordedNumber: 6000
//
smilesCode: Cc1cc(C)c(CN2CCc3c(Cl)cc(-c4cn[nH]c4C)c(Cl)c3C2=O)c(=O)[nH]1
recordedNumber: 110
//
smilesCode: Cc1cc(C)c(CN2CCc3c(F)cc(O[C@@H]4CCOC4)c(Cl)c3C2=O)c(=O)[nH]1
recordedNumber: 260

###

Test system: MDR1
Assay: Permeability across apical to basolateral side in MDCK cells expressing MDR1
Type: ADME, cell-based, Canis lupus familiaris
Settings: dog, read-out: permeability
Below, each entry is listed with its recorded Papp A→B.

smilesCode: Cc1cc(C)c(CN2CCc3c(Cl)cc(O[C@@H]4CCOC4)c(Cl)c3C2=O)c(=O)[nH]1
targetOrTestSystem: MDR1
Papp A→B: 4.5 ×10⁻⁶ cm/s
//
smilesCode: Cc1cc(C)c(CN2CCc3ccc(O[C@@H]4CCOC4)c(Cl)c3C2=O)c(=O)[nH]1
targetOrTestSystem: MDR1
Papp A→B: 1.7 ×10⁻⁶ cm/s
//
smilesCode: Cc1cc(C)c(CN2CCc3c(Cl)cc(-c4c(C)noc4C)c(Cl)c3C2=O)c(=O)[nH]1
targetOrTestSystem: MDR1
Papp A→B: 5.2 ×10⁻⁶ cm/s
//
smilesCode: Cc1cc(C)c(CN2CCc3ccc(OC(C)C)c(Cl)c3C2=O)c(=O)[nH]1
targetOrTestSystem: MDR1
Papp A→B: 7.9 ×10⁻⁶ cm/s

###

Target: Histone-lysine N-methyltransferase EZH2 (Homo sapiens, UniProt O75530+Q09028+Q15022+Q15910)
Sequence (Q15910 whole entry, one chain of several): as the sequence (Q15910 whole entry Y641N, one chain of several) above, with N641Y counted along it
Test: Inhibition of wild-type EZH2 (unknown origin) expressed in baculovirus infected SF9 cells co-expressing SUZ12/EED/RbAp48 complex using HeLa cells derived oligonucleosomes as substrate after 60 mins in presence of [3H] SAM by scintillation counting
pIC50: −log10 of the molar value.
experimentalReadout: pIC50

smilesCode: COc1cccc(C(=O)NCc2c(C)cc(C)[nH]c2=O)c1
experimentalReadout: pIC50
censoringOperator: <
recordedNumber: 3.82

smilesCode: COc1cccc(C(=O)NCc2c(C)cc(C)[nH]c2=O)c1Cl
experimentalReadout: pIC50
censoringOperator: =
recordedNumber: 5.14

smilesCode: Cc1cc(C)c(CNC(=O)c2cccc(OC(C)C)c2C)c(=O)[nH]1
experimentalReadout: pIC50
censoringOperator: =
recordedNumber: 5.85

smilesCode: Cc1cc(C)c(CN2CCc3c(Cl)cc(-c4c(C)nn(C)c4C)c(Cl)c3C2=O)c(=O)[nH]1
experimentalReadout: pIC50
censoringOperator: =
recordedNumber: 5.82

smilesCode: Cc1cc(C)c(CNC(=O)c2ccccc2C)c(=O)[nH]1
experimentalReadout: pIC50
censoringOperator: <
recordedNumber: 3.70

smilesCode: COc1cccc(C(=O)NCc2c(C)cc(C)[nH]c2=O)c1C
experimentalReadout: pIC50
censoringOperator: =
recordedNumber: 5.24

###

Assay: Kinetic solubility of the compound
Format: physicochemical
Settings: read-out: Kinetic_solubility
experimentalReadout: solubility kinetic (µM)

smilesCode: Cc1cc(C)c(CN2CCc3ccc(OC(C)C)c(Cl)c3C2=O)c(=O)[nH]1
u: µM
recordedNumber: 19.6
--
smilesCode: Cc1cc(C)c(CN2CCc3c(Cl)cc(-c4c(C)noc4C)c(Cl)c3C2=O)c(=O)[nH]1
u: µM
recordedNumber: 93.5
--
smilesCode: Cc1cc(C)c(CN2CCc3ccc(O[C@@H]4CCOC4)c(Cl)c3C2=O)c(=O)[nH]1
u: µM
recordedNumber: 510
--
smilesCode: Cc1cc(C)c(CN2CCc3c(Cl)cc(O[C@@H]4CCOC4)c(Cl)c3C2=O)c(=O)[nH]1
u: µM
recordedNumber: 26

###

Experiment: Lipophilicity, log D of the compound at pH 7.4
Settings: buffer

smilesCode: Cc1cc(C)c(CN2CCc3c(F)cc(O[C@@H]4CCOC4)c(Cl)c3C2=O)c(=O)[nH]1
logD: 2.1
//
smilesCode: COc1ccc2c(c1Cl)C(=O)N(Cc1c(C)cc(C)[nH]c1=O)CCO2
logD: 1.3
//
smilesCode: Cc1cc(C)c(CN2CCc3c(Cl)cc(O[C@@H]4CCOC4)c(Cl)c3C2=O)c(=O)[nH]1
logD: 2.5
//
smilesCode: CCOc1cccc(C(=O)NCc2c(C)cc(C)[nH]c2=O)c1C
logD: 2.1
//
smilesCode: COc1cccc(C(=O)NCc2c(C)cc(C)[nH]c2=O)c1F
logD: 1.4

###

Molecular target: Histone-lysine N-methyltransferase EZH2 (Homo sapiens, UniProt O75530+Q09028+Q15022+Q15910)
Experiment: Inhibition of wild-type EZH2 (unknown origin) expressed in baculovirus infected SF9 cells co-expressing SUZ12/EED/RbAp48 complex using HeLa cells derived oligonucleosomes as substrate after 60 mins in presence of [3H] SAM by scintillation counting
pIC50: −log10 of the molar value.
Classification field: Satisfied = pIC50 at or over 7; Not satisfied = pIC50 under 7.

smilesCode: COc1ccc2c(c1Cl)C(=O)N(Cc1c(C)cc(C)[nH]c1=O)CCO2
discreteLabel: Not satisfied

smilesCode: CCOc1cccc(C(=O)NCc2c(C)cc(C)[nH]c2=O)c1C
discreteLabel: Not satisfied

smilesCode: Cc1cc(C)c(CNC(=O)c2cccc(OC(C)C)c2Cl)c(=O)[nH]1
discreteLabel: Not satisfied

smilesCode: COc1cccc(C(=O)NCc2c(C)cc(C)[nH]c2=O)c1O
discreteLabel: Not satisfied

smilesCode: Cc1cc(C)c(CN2CCc3c(Cl)cc(-c4cn[nH]c4C)c(Cl)c3C2=O)c(=O)[nH]1
discreteLabel: Satisfied

smilesCode: Cc1cc(C)c(CN2CCc3c(Cl)cc(-c4cn[nH]c4)c(Cl)c3C2=O)c(=O)[nH]1
discreteLabel: Satisfied

smilesCode: Cc1cc(C)c(CN2CCc3ccc(-c4c(C)noc4C)c(Cl)c3C2=O)c(=O)[nH]1
discreteLabel: Satisfied

smilesCode: COc1cccc(C(=O)NCc2c(C)cc(C)[nH]c2=O)c1OC
discreteLabel: Not satisfied

smilesCode: Cc1cc(C)c(CN2CCc3c(Cl)cc(O[C@@H]4CCOC4)c(Cl)c3C2=O)c(=O)[nH]1
discreteLabel: Satisfied

smilesCode: Cc1cc(C)c(CN2CCc3c(C)cc(O[C@@H]4CCOC4)c(Cl)c3C2=O)c(=O)[nH]1
discreteLabel: Satisfied

smilesCode: Cc1cc(C)c(CN2CCc3c(Cl)cc(-c4c(C)n[nH]c4C)c(Cl)c3C2=O)c(=O)[nH]1
discreteLabel: Satisfied

smilesCode: Cc1cc(C)c(CN2CCc3c(F)cc(O[C@@H]4CCOC4)c(Cl)c3C2=O)c(=O)[nH]1
discreteLabel: Satisfied

smilesCode: COc1cccc(C(=O)NCc2c(C)cc(C)[nH]c2=O)c1F
discreteLabel: Not satisfied

###

Assay: Protein binding in mouse plasma at 30 to 300 mg/kg
Type: ADME, organism-based
Conditions: read-out: PPB (converted)
experimentalReadout: fraction unbound

smilesCode: Cc1cc(C)c(CN2CCc3c(Cl)cc(-c4c(C)noc4C)c(Cl)c3C2=O)c(=O)[nH]1
experimentalReadout: fraction unbound
recordedNumber: 0.85

###

Molecular target: Histone-lysine N-methyltransferase EZH2 (Homo sapiens, UniProt Q15910)
Sequence (Q15910 whole entry): as the sequence (Q15910 whole entry Y641N, one chain of several) above, with N641Y counted along it
Assay: Inhibition of EZH2 in human KARPAS422 cells assessed as reduction in H3K27Me3 levels after 72 hrs by ELISA
Format: cell-based
pIC50: −log10 of the molar value.
Classification field: 1 = pIC50 at or over 6; -1 = pIC50 under 6.

smilesCode: Cc1cc(C)c(CN2CCc3c(Cl)cc(-c4c(C)noc4C)c(Cl)c3C2=O)c(=O)[nH]1
targetOrTestSystem: Histone-lysine N-methyltransferase EZH2 (Homo sapiens, UniProt Q15910)
discreteLabel: 1
//
smilesCode: Cc1cc(C)c(CN2CCc3ccc(-c4c(C)noc4C)c(Cl)c3C2=O)c(=O)[nH]1
targetOrTestSystem: Histone-lysine N-methyltransferase EZH2 (Homo sapiens, UniProt Q15910)
discreteLabel: 1
//
smilesCode: Cc1cc(C)c(CN2CCc3c(C)cc(O[C@@H]4CCOC4)c(Cl)c3C2=O)c(=O)[nH]1
targetOrTestSystem: Histone-lysine N-methyltransferase EZH2 (Homo sapiens, UniProt Q15910)
discreteLabel: 1
//
smilesCode: Cc1cc(C)c(CN2CCc3c(Cl)cc(-c4c(C)nn(C)c4C)c(Cl)c3C2=O)c(=O)[nH]1
targetOrTestSystem: Histone-lysine N-methyltransferase EZH2 (Homo sapiens, UniProt Q15910)
discreteLabel: -1
//
smilesCode: Cc1cc(C)c(CN2CCc3c(Cl)cc(-c4cn[nH]c4)c(Cl)c3C2=O)c(=O)[nH]1
targetOrTestSystem: Histone-lysine N-methyltransferase EZH2 (Homo sapiens, UniProt Q15910)
discreteLabel: -1
//
smilesCode: Cc1cc(C)c(CN2CCc3c(Cl)cc(-c4c(C)n[nH]c4C)c(Cl)c3C2=O)c(=O)[nH]1
targetOrTestSystem: Histone-lysine N-methyltransferase EZH2 (Homo sapiens, UniProt Q15910)
discreteLabel: 1
//
smilesCode: Cc1cc(C)c(CN2CCc3c(Cl)cc(O[C@@H]4CCOC4)c(Cl)c3C2=O)c(=O)[nH]1
targetOrTestSystem: Histone-lysine N-methyltransferase EZH2 (Homo sapiens, UniProt Q15910)
discreteLabel: 1
